# Assay Procedure: Evaluation of dissolution stability (content change on storage in dissolved state)
# Format: physicochemical
# Test Conditions: 1 mg/1 ml dissolved state, 40° C. and RH 75%, initial
Where no end group is shown, it is not given here. [ ]: non-standard residue; d: D form. Hyp = O=C(O)[C@@H]1C[C@@H](O)CN1; Tle = CC(C)(C)[C@H](N)C(=O)O
Labelling: Initial content (%) reported below 90% becomes Met; at or above becomes Not met.

> print(dat)
                                  substance    group
1  Hyp-Gly-Gln-Asu-Gly-Leu-Ala (isopropyl ester) [Example 113]  Not met
2  Hyp-Gly-Gln-Glu-Val ([Hyp]GQEV) [Example 91]  Not met
3  Hyp-Gly-Gln-Glu-tert Leu-Leu-Ala ([Hyp]GQE[Tle]LA) [Example 93]  Not met
4                     QDGLAGPK [Example 16]      Met

----------
# Assay Procedure: Evaluation of dissolution stability (content change on storage in dissolved state)
# Assay type: physicochemical
# Test Conditions: 1 mg/1 ml dissolved state, 40° C. and RH 75%, day 7
Where no end group is shown, it is not given here. [ ]: non-standard residue; d: D form. Pro(4,4-Me2) = CC1(C)CN[C@H](C(=O)O)C1; Hyp = O=C(O)[C@@H]1C[C@@H](O)CN1; Aib = CC(C)(N)C(=O)O
Readout Name: Day 7 content (%)

> print(dat)
                                   substance  reported.result
 1  Hyp-Gly-Gln-Asp-Val ([Hyp]GQDV) [Example 21]            69.10
 2  Hyp-Gly-Gln-Glu-Val-Leu-Ala ([Hyp]GQEVLA) [Example 87]            94.38
 3  Hyp-Gly-Gln-D Asp-Gly ([Hyp]GQ[dD]G) [Example 59]            98.75
 4  4,4-dimethyl Pro-Gly-Gln-Asp-Gly-Leu ([Pro(4,4-Me2)]GQDGL) [Example 56]            51.41
 5  Leu-Ala-Gly-Pro-Lys (LAGPK) [Example 25]            77.40
 6                      LGLAGPK [Example 20]            99.66
 7  Hyp-Gly-Gln-Leu-Val ([Hyp]GQLV) [Example 95]            97.78
 8  Hyp-Gly-Gln-Asu-Gly (isopropyl ester) [Example 109]            59.07
 9  Hyp-Gly-Gln-Glu-Aib-Leu-Ala ([Hyp]GQE[Aib]LA) [Example 92]            96.56
10  Hyp-Gly-Gln-Asp-Gly-Leu (isopropyl ester) [Example 107]            58.41

----------
# Assay Procedure: Evaluation of dissolution stability (content change on storage in dissolved state)
# Type: physicochemical
# Test Conditions: 1 mg/1 ml dissolved state, 40° C. and RH 75%, day 3
Primed or numbered codes have the meaning given here. Where no end group is shown, it is not given here. [ ]: non-standard residue; d: D form. Asu′ = aspartimide (aminosuccinimide); Hyp = O=C(O)[C@@H]1C[C@@H](O)CN1; Aib = CC(C)(N)C(=O)O
Readout Name: Day 3 content (%)

> print(dat)
                                  substance       readout.name  reported.result
1  Hyp-Gly-Gln-Asn-Gly-Leu ([Hyp]GQNGL) [Example 81]  Day 3 content (%)            92.10
2  Hyp-Gly-Gln-Asp-Ala-Leu-Ala ([Hyp]GQDALA) [Example 39]  Day 3 content (%)            88.16
3  Hyp-Gly-Gln-Asp-Aib ([Hyp]GQD[Aib]) [Example 85]  Day 3 content (%)            88.07
4  Hyp-Gly-Gln-Asn-Gly-Leu-Ala ([Hyp]GQNGLA) [Example 79]  Day 3 content (%)            81.04
5  Hyp-Gly-Gln-Leu-Gly-Leu-Ala-Gly ([Hyp]GQLGLAG) [Example 17]  Day 3 content (%)            96.69
6  Hyp-Gly-Gln-Asu-Gly-Leu ([Hyp]GQ[Asu′]GL) [Example 101]  Day 3 content (%)            86.38

Attribution: patent US12428446B2
